System: CP-AMPARs
Test: Whole-cell patch-clamp of kainate-induced currents in isolated striatal giant interneurons
Format: cell-based, Wistar rat
Details: kainate-induced currents; Hill equation; −80 mV; read-out: IC50 CP-AMPARs
readout-kind: pIC50
The read-out pIC50 is expressed as -log10 of concentration in moles per litre.

Give recorded pIC50 with CP-AMPARs for the following compound: O=C1NC(=O)C(c2ccccc2)(c2ccccc2)N1
3.60

* * *

Molecular target: CI-AMPARs (Rattus norvegicus, UniProt P19491, Q607R)
Construct: activity against native calcium-permeable AMPA receptors (CP-AMPARs) and calcium-impermeable AMPA receptors (CI-AMPARs); endogenous in cells; host or cells: acutely isolated pyramidal neurons from the CA1 area of Wistar rat hippocampal slices
Sequence (P19491 22-883 Q607R): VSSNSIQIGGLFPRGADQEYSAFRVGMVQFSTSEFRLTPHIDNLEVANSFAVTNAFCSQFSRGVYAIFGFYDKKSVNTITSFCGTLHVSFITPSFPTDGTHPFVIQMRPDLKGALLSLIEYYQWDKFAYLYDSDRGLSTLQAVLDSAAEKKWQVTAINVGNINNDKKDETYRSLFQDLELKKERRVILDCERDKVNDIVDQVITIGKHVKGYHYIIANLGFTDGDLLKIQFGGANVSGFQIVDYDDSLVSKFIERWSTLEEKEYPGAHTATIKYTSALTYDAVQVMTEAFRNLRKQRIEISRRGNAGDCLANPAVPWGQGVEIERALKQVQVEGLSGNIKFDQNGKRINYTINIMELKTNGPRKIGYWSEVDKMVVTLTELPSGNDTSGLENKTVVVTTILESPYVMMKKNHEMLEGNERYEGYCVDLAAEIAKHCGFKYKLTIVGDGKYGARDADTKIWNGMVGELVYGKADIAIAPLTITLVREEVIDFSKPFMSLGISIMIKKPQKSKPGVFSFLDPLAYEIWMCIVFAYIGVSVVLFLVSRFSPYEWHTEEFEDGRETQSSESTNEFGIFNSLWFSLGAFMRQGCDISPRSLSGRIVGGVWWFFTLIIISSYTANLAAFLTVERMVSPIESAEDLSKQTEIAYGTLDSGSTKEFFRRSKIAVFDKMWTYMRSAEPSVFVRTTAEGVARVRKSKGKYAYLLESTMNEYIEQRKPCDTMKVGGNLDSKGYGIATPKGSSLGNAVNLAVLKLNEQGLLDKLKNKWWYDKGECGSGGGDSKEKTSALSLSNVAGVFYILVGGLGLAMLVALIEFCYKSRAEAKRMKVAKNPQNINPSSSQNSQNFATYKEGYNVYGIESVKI
Experiment: Whole-cell patch-clamp of kainate-induced currents in isolated hippocampal CA1 pyramidal neurons
Format: cell-based, Wistar rat
Conditions: 100 µM compound; currents induced by 100 µM kainate; −80 mV; mean ± SD, N = 5
Experimental: All experimental procedures were approved by the Animal Care and Use Committee of the I.M. Sechenov Institute of Evolutionary Physiology and Biochemistry of the Russian Academy of Sciences. […] Series resistance of about 20 MΩ was compensated by 70–80% and monitored during experiments. Currents were recorded using an EPC-8 amplifier (HEKA Electronics, Lambrecht, Germany), filtered at 5 kHz, sampled, and stored on a personal computer. […]
readout-kind: CI-AMPARs % inhibition at 100 µM (%)
Give the value in % but do not write % after it.

Below are worked cases with known answers.
* CC1(C)O[C@@H]2[C@@H](CO[C@@]3(COS(N)(=O)=O)OC(C)(C)O[C@@H]23)O1 [Topiramate] | 12
* NCC1(CC(=O)O)CCCCC1 | 20
* Cc1ccsc1C(=CCCN1CCCC(C(=O)O)C1)c1sccc1C (stereo not drawn) | 14
* NS(=O)(=O)Cc1noc2ccccc12 [Zonisamide] | 11
* C=CC(N)CCC(=O)O (stereo not drawn) | 8

Param item = NC(=O)N1c2ccccc2C=Cc2ccccc21 [Carbamazepine] ; retrieve measured CI-AMPARs % inhibition at 100 µM.
11

Consider the molecule Nc1nnc(-c2cccc(Cl)c2Cl)c(N)n1 and give its measured CI-AMPARs % inhibition at 100 µM.
14

Could you share which CI-AMPARs % inhibition at 100 µM value was measured for CC[C@@H](C(N)=O)N1CCCC1=O ?
6

Suppose we examine the molecule NC(=O)OCC(COC(N)=O)c1ccccc1 [Felbamate] ; what CI-AMPARs % inhibition at 100 µM value has been reported?
16
